B1: r11_951_TrROS_Hall (parent)
chain: KKKYVIKVYFEDTGKEVEIEAESKEEALEAAKRLAEELGLKIKKVEIYP

- Variants of: B1
- procedure.text: folding stability dG (cDNA display proteolysis); higher = more stable
- study.conditions: PBS, room temperature
readout.label: folding stability dG (kcal/mol)
Give bare numbers, in kcal/mol.

Give folding stability dG for each of the items listed below.
1. L34K
2. K2V
3. E16D
4. I19M
5. S23H
6. K44V
7. E29C
8. K32A

4.35
4.34
4.62
4.5
4.08
4.17
4.58
4.44

Report folding stability dG for every entry below.
1. V45H
2. I42M
3. T13E
4. E25Q
5. A35F
6. K41Q
7. E11N

1: 4.08; 2: 3.99; 3: 4.4; 4: 4.18; 5: 4.13; 6: 4.02; 7: 4.67

List folding stability dG for every entry below, keeping the order given.
1. K1C
2. A31C
3. V5S
4. E37C
5. K15P
6. Y9H

1: 4.57; 2: 4.18; 3: 4.3; 4: 4.94; 5: 4.29; 6: 4.26

GET /value?item= `R33D` &field=folding stability dG returns 4.09
